B1: PhoQ; a variant is named by its letters at X, in order, P23837 (parent)
chain: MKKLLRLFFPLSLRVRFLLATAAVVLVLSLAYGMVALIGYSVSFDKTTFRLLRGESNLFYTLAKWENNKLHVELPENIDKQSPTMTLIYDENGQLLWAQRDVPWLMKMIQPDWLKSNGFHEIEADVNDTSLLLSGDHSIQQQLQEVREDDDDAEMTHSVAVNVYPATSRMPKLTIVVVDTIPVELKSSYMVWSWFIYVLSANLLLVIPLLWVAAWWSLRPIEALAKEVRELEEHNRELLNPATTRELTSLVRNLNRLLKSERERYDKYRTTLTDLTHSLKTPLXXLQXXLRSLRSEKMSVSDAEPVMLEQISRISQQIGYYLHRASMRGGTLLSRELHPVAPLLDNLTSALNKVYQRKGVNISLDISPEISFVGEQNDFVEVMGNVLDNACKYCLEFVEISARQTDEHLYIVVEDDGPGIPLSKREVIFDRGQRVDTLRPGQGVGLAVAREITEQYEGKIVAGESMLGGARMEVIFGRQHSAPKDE

variants of: B1; assay: enrichment ratio after two sorts for PhoP signalling (ratio (wild type AVST 3.29)); higher = more functional; conditions: with PhoP (E. coli)
Over roughly 140,000 sequences, “enrichment ratio after two sorts for PhoP signalling” has its median near 0; the highest 2% begin near 11. The sample holds the highest values, similar sequences and a random draw of the others, so the mix is not that of the screen.
test readout: enrichment ratio

Return the recorded enrichment ratio value; entry: `MAVK` ≤ 0.25

Return the recorded enrichment ratio value; entry: `KKCL` 1.66

Return the recorded enrichment ratio value; entry: `MMCL` 4.1

Return the recorded enrichment ratio value; entry: `AKCV` 3.07

Return the recorded enrichment ratio value; entry: `GGMT` ≤ 0.25

Return the recorded enrichment ratio value; entry: `MAGD` ≤ 0.25

Return the recorded enrichment ratio value; entry: `LVAL` ≤ 0.25

Return the recorded enrichment ratio value; entry: `MDWD` ≤ 0.25

Return the recorded enrichment ratio value; entry: `KKCV` ≤ 0.25

Return the recorded enrichment ratio value; entry: `HFHT` ≤ 0.25

Return the recorded enrichment ratio value; entry: `LYPG` ≤ 0.25

Return the recorded enrichment ratio value; entry: `MAGF` 14.5

Return the recorded enrichment ratio value; entry: `EIKR` ≤ 0.25

Return the recorded enrichment ratio value; entry: `VAGL` 1.62

Return the recorded enrichment ratio value; entry: `MNDG` ≤ 0.25

Return the recorded enrichment ratio value; entry: `IKSA` ≤ 0.25

Return the recorded enrichment ratio value; entry: `IICI` ≤ 0.25

Return the recorded enrichment ratio value; entry: `DLCQ` ≤ 0.25

Return the recorded enrichment ratio value; entry: `AVWD` ≤ 0.25

Return the recorded enrichment ratio value; entry: `MPVD` ≤ 0.25

Return the recorded enrichment ratio value; entry: `LMTM` ≤ 0.25

Return the recorded enrichment ratio value; entry: `TKCV` 30.6

Hello, the source for this data is a collection of fitness landscapes (doi:10.1126/science.1257360), in case you need it.
